- Test system: PIP tumor and PC3 tumor
- experimental details: Biodistribution of 125I labeled compounds 17, 18, 26 and 27 in tumor bearing nude mice
- Format: in vivo
- condition context: 4 h
endpoint label: Biodistribution: thyroid (% ID/g)

Examples with answers:
{"compound": "O=C(O)CC[C@H](NC(=O)N[C@@H](CCCCNC(=O)[C@H](Cc1ccccc1)NC(=O)[C@H](CCC(=O)O)NC(=O)c1ccc([125I])cc1)C(=O)O)C(=O)O [[^125I]17]", "endpoint label": "Biodistribution: thyroid", "assay result": 7.16}
{"compound": "O=C(O)CC[C@H](NC(=O)N[C@@H](CCCCNC(=O)[C@H](Cc1ccccc1)NC(=O)[C@H](CCC(=O)O)NC(=O)[C@H](CCC(=O)O)NC(=O)c1ccc([125I])cc1)C(=O)O)C(=O)O [[^125I]18]", "endpoint label": "Biodistribution: thyroid", "assay result": 26.99}

I. O=C(O)CC[C@H](NC(=O)N[C@@H](CCCCNC(=O)[C@H](Cc1ccccc1)NC(=O)COc1ccc(C[C@H](NC(=O)[C@H](CCC(=O)O)NC(=O)c2ccc([125I])cc2)C(=O)O)cc1)C(=O)O)C(=O)O [[^125I]26]
II. O=C(O)CC[C@H](NC(=O)N[C@@H](CCCCNC(=O)[C@H](Cc1ccccc1)NC(=O)COc1ccc(C[C@H](NC(=O)[C@H](CCC(=O)O)NC(=O)[C@H](CCC(=O)O)NC(=O)c2ccc([125I])cc2)C(=O)O)cc1)C(=O)O)C(=O)O [[^125I]27]
// query Which of the two gives a bigger number for Biodistribution: thyroid: I or II ? Indicate your choice by writing its label.
// result II
